Reported Antiantidiuretic pA2 values for the following compounds.
test system: antidiuretic response to arginine vasopressin; design: species or system rats; conditions: rat, in vivo
Numbered stars: 1 amine (or outer) side, 2 acyl side, 3 side chain; on linkers, the order of the positions; unused ones are H or OH. Square brackets hold non-standard residues; d marks the D form. Peptide text beside a SMILES is read from it. * marks the point of attachment. Acetyl(1-adamantyl) = O=C(CC12CC3CC(CC(C3)C1)C2)*; Ethylenediamine = C(CN[*:2])N[*:1]; Orn = NCCC[C@H](N)C(=O)O; Abu = CC[C@H](N)C(=O)O
Please state the value as a number alone, without comment.

| COMPOUND | SYSTEM_TESTED | OBSERVED_MEASUREMENT |
| --- | --- | --- |
| CCOc1ccc(C[C@@H](NC(=O)CC23CC4CC(CC(C4)C2)C3)C(=O)N[C@@H](Cc2ccccc2)C(=O)N[C@H](C(=O)N[C@@H](CC(N)=O)C(=O)N[C@@H](CC)C(=O)N2CCC[C@H]2C(=O)N[C@@H](CCCNC(=N)N)C(N)=O)C(C)C)cc1 ({Acetyl(1-adamantyl)}-[dY](Et)FVN[Abu]PR-NH2) | antidiuretic response to arginine vasopressin | 7.20 |
| CCOc1ccc(C[C@@H](NC(=O)CC23CC4CC(CC(C4)C2)C3)C(=O)N[C@@H](Cc2ccccc2)C(=O)N[C@H](C(=O)N[C@@H](CC(N)=O)C(=O)N[C@@H](CC)C(=O)N2CCC[C@H]2C(=O)N[C@@H](CCCNC(=N)N)C(=O)NCCN)C(C)C)cc1 ({Acetyl(1-adamantyl)}-[dY](Et)FVN[Abu]PR-Ethylenediamine) | antidiuretic response to arginine vasopressin | 7.71 |

Kindly consider the entry below.
The compound listed as CCOc1ccc(C[C@@H](NC(=O)CC23CC4CC(CC(C4)C2)C3)C(=O)N[C@@H](Cc2ccccc2)C(=O)N[C@H](C(=O)N[C@@H](CC(N)=O)C(=O)N[C@@H](CCCN)C(=O)N2CCC[C@H]2C(=O)N[C@@H](CCCNC(=N)N)C(N)=O)C(C)C)cc1 ({Acetyl(1-adamantyl)}-[dY](Et)FVN[Orn]PR-NH2) shows Antiantidiuretic pA2 equal to 7.81

----------
test system: antidiuretic response to arginine vasopressin; set-up: species or system rats; details: rat, in vivo
Square brackets hold non-standard residues; d marks the D form. Peptide text beside a SMILES is read from it. * marks the point of attachment. Acetyl(1-adamantyl) = O=C(CC12CC3CC(CC(C3)C1)C2)*; Cyclohexylacetyl(1-SH) = O=C(CC1(S)CCCCC1)*; Abu = CC[C@H](N)C(=O)O; X1 = CCC(S)(CC)CC(=O)*; Propionyl = CCC(=O)*
MEASUREMENT_LABEL: Antiantidiuretic pA2

| MOLECULE | Antiantidiuretic pA2 |
| --- | --- |
| CCOc1ccc(C[C@@H](NC(=O)CC)C(=O)N[C@@H](Cc2ccccc2)C(=O)N[C@H](C(=O)N[C@@H](CC(N)=O)C(=O)N[C@@H](CC)C(=O)N2CCC[C@H]2C(=O)N[C@@H](CCCNC(=N)N)C(=O)N[C@@H](CCCNC(=N)N)C(N)=O)C(C)C)cc1 (Propionyl-[dY](Et)FVN[Abu]PRR-NH2) | 7.74 ± 0.07 |

The molecule listed as CCOc1ccc(C[C@@H](NC(=O)CC23CC4CC(CC(C4)C2)C3)C(=O)N[C@@H](Cc2ccccc2)C(=O)N[C@H](C(=O)N[C@@H](CC(N)=O)C(=O)N[C@@H](CC)C(=O)N2CCC[C@H]2C(=O)N[C@H](CCCNC(=N)N)C(=O)N[C@@H](CCCNC(=N)N)C(N)=O)C(C)C)cc1 ({Acetyl(1-adamantyl)}-[dY](Et)FVN[Abu]P[dR]R-NH2) shows Antiantidiuretic pA2 equal to 7.85 ± 0.08

The molecule listed as CCOc1ccc(C[C@@H](NC(=O)CC2(S)CCCCC2)C(=O)N[C@@H](Cc2ccccc2)C(=O)N[C@H](C(=O)N[C@@H](CC(N)=O)C(=O)N[C@@H](CS)C(=O)N2CCC[C@H]2C(=O)N[C@@H](CCCNC(=N)N)C(=O)NCC(N)=O)C(C)C)cc1 ({Cyclohexylacetyl(1-SH)}-[dY](Et)FVNCPRG-NH2) shows Antiantidiuretic pA2 equal to 7.05 ± 0.08

The molecule listed as CCOc1ccc(C[C@@H](NC(=O)CC(S)(CC)CC)C(=O)N[C@@H](Cc2ccccc2)C(=O)N[C@H](C(=O)N[C@@H](CC(N)=O)C(=O)N[C@@H](CC)C(=O)N2CCC[C@H]2C(=O)N[C@@H](CCCNC(=N)N)C(=O)NCC(N)=O)C(C)C)cc1 (X1-[dY](Et)FVN[Abu]PRG-NH2) shows Antiantidiuretic pA2 equal to 7.09 ± 0.09

The molecule listed as CCOc1ccc(C[C@@H](NC(=O)CC23CC4CC(CC(C4)C2)C3)C(=O)N[C@@H](Cc2ccccc2)C(=O)N[C@H](C(=O)N[C@@H](CC(N)=O)C(=O)N[C@@H](CCCNC(=N)N)C(=O)N2CCC[C@H]2C(=O)N[C@@H](CCCNC(=N)N)C(N)=O)C(C)C)cc1 ({Acetyl(1-adamantyl)}-[dY](Et)FVNRPR-NH2) shows Antiantidiuretic pA2 equal to 7.73 ± 0.08

The molecule listed as CCOc1ccc(C[C@@H](NC(=O)CC2(S)CCCCC2)C(=O)N[C@@H](Cc2ccccc2)C(=O)N[C@H](C(=O)N[C@@H](CC(N)=O)C(=O)N[C@@H](CC)C(=O)N2CCC[C@H]2C(=O)N[C@@H](CCCNC(=N)N)C(=O)NCC(N)=O)C(C)C)cc1 ({Cyclohexylacetyl(1-SH)}-[dY](Et)FVN[Abu]PRG-NH2) shows Antiantidiuretic pA2 equal to 7.42 ± 0.05

The molecule listed as CCOc1ccc(C[C@@H](NC(=O)CC23CC4CC(CC(C4)C2)C3)C(=O)N[C@@H](Cc2ccccc2)C(=O)N[C@H](C(=O)N[C@@H](CC(N)=O)C(=O)N[C@@H](CC)C(=O)N2CCC[C@H]2C(=O)N[C@@H](CCCNC(=N)N)C(=O)N[C@@H](CCCNC(=N)N)C(N)=O)C(C)C)cc1 ({Acetyl(1-adamantyl)}-[dY](Et)FVN[Abu]PRR-NH2) shows Antiantidiuretic pA2 equal to 8.11 ± 0.07
